biological target: full-length NS3/NS4A-2 (HCV NS3 protease) (Hepatitis C virus genotype 1a, UniProt P27958); construct: Recombinant E. coli or Baculovirus full-length NS3 was diluted to 3.33 μM with assay buffer; made in house; host or cells: E. coli or baculovirus (BV) expression system; assay: NS3-NS4 protease assay / NS3 inhibition assay (RETS1 substrate, fluorescence kinetic read); format: biochemical; conditions: recombinant E. coli or Baculovirus full-length NS3 with NS4A-2; read-out: NS3-NS4 IC50
Sequence (P27958 1027-1657): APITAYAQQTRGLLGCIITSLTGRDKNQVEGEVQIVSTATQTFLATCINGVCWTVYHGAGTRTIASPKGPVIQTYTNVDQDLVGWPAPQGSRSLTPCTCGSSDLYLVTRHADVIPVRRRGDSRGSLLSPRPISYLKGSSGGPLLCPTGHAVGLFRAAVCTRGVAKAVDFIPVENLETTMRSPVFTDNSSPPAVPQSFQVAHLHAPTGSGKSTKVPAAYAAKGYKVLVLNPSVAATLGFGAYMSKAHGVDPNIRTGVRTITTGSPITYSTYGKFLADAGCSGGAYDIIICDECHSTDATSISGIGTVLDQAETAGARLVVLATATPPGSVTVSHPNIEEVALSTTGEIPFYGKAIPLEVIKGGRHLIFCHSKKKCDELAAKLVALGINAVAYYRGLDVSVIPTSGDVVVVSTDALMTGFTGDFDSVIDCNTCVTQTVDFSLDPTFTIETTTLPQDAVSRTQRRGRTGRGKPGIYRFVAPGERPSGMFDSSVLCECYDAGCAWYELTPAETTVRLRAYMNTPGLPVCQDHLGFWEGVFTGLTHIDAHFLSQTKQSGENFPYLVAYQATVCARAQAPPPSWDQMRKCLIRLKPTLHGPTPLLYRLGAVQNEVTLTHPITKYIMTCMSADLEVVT
MEASURE: IC50

In the examples that follow, each entry is paired with its recorded IC50.
COMPOUND | ASSAY SYSTEM | IC50
COc1ccc(S(=O)(=O)NC(=O)[C@@]23C[C@H]2/C=C\CCCCC[C@H](NC(=O)OC2CCCC2)C(=O)N2C[C@H](OC(=O)N4CCc5ccccc5C4)C[C@H]2C(=O)N3)cc1 | full-length NS3/NS4A-2 (HCV NS3 protease) (Hepatitis C virus genotype 1a, UniProt P27958) | < 100 nM
Cc1noc(C)c1S(=O)(=O)NC(=O)[C@@]12C[C@H]1/C=C\CCCCC[C@H](NC(=O)OC1CCCC1)C(=O)N1C[C@H](OC(=O)N3CCc4ccccc4C3)C[C@H]1C(=O)N2 | full-length NS3/NS4A-2 (HCV NS3 protease) (Hepatitis C virus genotype 1a, UniProt P27958) | < 100 nM
N[C@H]1CCCCC/C=C\[C@@H]2C[C@@]2(C(=O)NS(=O)(=O)NC2CCCC2)NC(=O)[C@@H]2C[C@@H](OC(=O)N3Cc4cccc(Cl)c4C3)CN2C1=O | full-length NS3/NS4A-2 (HCV NS3 protease) (Hepatitis C virus genotype 1a, UniProt P27958) | < 100 nM
CC(C)(C)C(=O)N[C@H]1CCCCC/C=C\[C@@H]2C[C@@]2(C(=O)NC#N)NC(=O)C2C[C@@H](OC(=O)N3Cc4cccc(F)c4C3)CN2C1=O (some centres unmarked) | full-length NS3/NS4A-2 (HCV NS3 protease) (Hepatitis C virus genotype 1a, UniProt P27958) | < 100 nM
CC(C)(CO)C(=O)N[C@H]1CCCCC/C=C\[C@@H]2C[C@@]2(C(=O)NS(=O)(=O)C2CC2)NC(=O)[C@@H]2C[C@@H](OC(=O)N3Cc4cccc(F)c4C3)CN2C1=O | full-length NS3/NS4A-2 (HCV NS3 protease) (Hepatitis C virus genotype 1a, UniProt P27958) | < 100 nM

Exercise: Find the recorded IC50 belonging to CC(C)(C)OC(=O)N[C@H]1CCCCC/C=C\[C@@H]2C[C@@]2(C(=O)NS(=O)(=O)C2CC2)NC(=O)[C@@H]2C[C@@H](OC(=O)N3CCc4c(Cl)ccc(Cl)c4C3)CN2C1=O and report it.
Solution: < 100 nM

Exercise: What IC50 value was documented for this compound, CN1CCN(c2ccc3c(c2)CN(C(=O)O[C@@H]2C[C@H]4C(=O)N[C@]5(C(=O)O)C[C@H]5/C=C\CCCCC[C@H](NC(=O)OC(C)(C)C)C(=O)N4C2)C3)CC1 ?
Solution: < 100 nM

Exercise: Suppose we examine the compound CC(C)(C)OC(=O)N[C@H]1CCCCC/C=C\[C@@H]2C[C@@]2(C(=O)NS(=O)(=O)C2CC2)NC(=O)[C@@H]2C[C@@H](OC(=O)N3CCc4c(F)ccc(F)c4C3)CN2C1=O ; what IC50 value has been reported?
Solution: < 100 nM

Exercise: IC50 for CN(C)S(=O)(=O)NC(=O)[C@@]12C[C@H]1/C=C\CCCCC[C@H](NC(=O)OC(C)(C)C)C(=O)N1CCC[C@H]1C(=O)N2 ?
Solution: < 10000 nM

Exercise: For CC(C)(C)OC(=O)N[C@H]1CCCCC/C=C\[C@@H]2C[C@@]2(C(=O)NS(=O)(=O)C2(C)CC2)NC(=O)[C@@H]2CCCN2C1=O , what is its reported IC50?
Solution: < 1000 nM

Exercise: Record request: IC50 value, item COCC1c2cccc(F)c2CCN1C(=O)O[C@@H]1CC2C(=O)N[C@]3(C(=O)NS(=O)(=O)C4CC4)C[C@H]3/C=C\CCCCC[C@H](N)C(=O)N2C1 (some centres unmarked)
Solution: < 1000 nM
